Sourced from ChEMBL document CHEMBL1649062

system: Brain; experiment: Drug level in Lister Hooded rat assessed per gram of tissue at 150 mg/kg, ip; assay type: ADME, organism-based; design: dose 150 mg/kg, route intraperitoneal; details: in vivo
experimental endpoint: Drug uptake (ng/g)

{"smiles structure": "O=C(c1ccc(-n2nc(C(F)(F)F)c3c2CCCC3)cc1)N1CCOCC1", "Drug uptake / ng/g": 7168}

(A) CS(=O)(=O)NCc1ccc(-n2nc(C(F)(F)F)c3c2CCCC3)cc1
(B) O=C1CCCN1Cc1c(F)cc(-n2nc(C(F)(F)F)c3c2CCOC3)cc1F
(C) O=C(c1ccc(-n2nc(C(F)(F)F)c3c2CCOC3)cc1)N1CCCC1
IN: Sort by Drug uptake, descending. The labels, placed in the requested order, form the answer.
OUT: C, B, A
(C: 22525 ng/g, B: 8988 ng/g, A: 5074 ng/g)

---

experiment: Distribution coefficient, log D of the compound; format: physicochemical; conditions: octanol/water
experimental endpoint: logD

The examples below pair each entry with its known result.
{"compound": "CC(C(=O)N1CCCC1)c1ccc(-n2nc(C(F)(F)F)c3c2CCCC3)cc1 (stereo not given)", "result value": 2.3}
{"compound": "O=C1CCCN1Cc1ccc(-n2nc(C(F)(F)F)c3c2CCCC3)cc1F", "result value": 3.3}
{"compound": "O=C(c1ccc(-n2nc(C(F)(F)F)c3c2CCCC3)cc1)N1CCOCC1", "result value": 3.1}

(1) O=C(c1ccc(-n2nc(C(F)(F)F)c3c2CCCC3)cc1)N1CCCC1
(2) O=C(c1ccc(-n2nc(C(F)(F)F)c3c2CCCC3)cc1)N1CCCCC1
IN: Param pair: 1 , 2 . Output: the one whose logD is numerically greater. Pick one; state its label.
OUT: 1
(1: 3, 2: 1.6)

---

assay: Clearance in Sprague-Dawley rat at 2.5 mg/kg, iv and 3 mg/kg, po; assay type: ADME, organism-based; details: in vivo
experimental endpoint: clearance (mL/min/kg)
The figure you give is taken to be in mL/min/kg; do not add the unit.

IN: Requested read-out: clearance. Entry: O=C(c1ccc(-n2nc(C(F)(F)F)c3c2CCCC3)cc1)N1CCCC1
OUT: 40

---

test: Oral bioavailability in Gottingen minipig at 1 mg/kg; type: ADME, organism-based, Sus scrofa; conditions: pig, in vivo
experimental endpoint: bioavailability (%)
The figure you give is taken to be in %; do not add the unit.

IN: Requested read-out: bioavailability. Entry: O=C(c1ccc(-n2nc(C(F)(F)F)c3c2CCCC3)cc1)N1CCCC1
OUT: 13

---

assay: Distribution coefficient, log D of the compound; assay type: physicochemical; conditions: octanol/water
experimental endpoint: logD

The examples below pair each entry with its known result.
{"compound": "O=C(C(F)c1ccc(-n2nc(C(F)(F)F)c3c2CCCC3)cc1)N1CCCC1 (stereo unspecified)", "result value": 3.4}
{"compound": "O=C(N1CCCC1)C1(c2ccc(-n3nc(C(F)(F)F)c4c3CCCC4)cc2)CC1", "result value": 3.8}
{"compound": "CCC(=O)NCc1ccc(-n2nc(C(F)(F)F)c3c2CCCC3)cc1", "result value": 3.6}
{"compound": "CS(=O)(=O)NCc1ccc(-n2nc(C(F)(F)F)c3c2CCCC3)cc1", "result value": 2.5}

(I) O=S1(=O)CCCN1Cc1ccc(-n2nc(C(F)(F)F)c3c2CCCC3)cc1
(II) CC(=O)N(C)Cc1ccc(-n2nc(C(F)(F)F)c3c2CCCC3)cc1
IN: Lower logD: I or II ? Pick one; state its label.
OUT: II
(II: 1.3, I: 3.3)

---

target: Glutamate receptor 2 (Homo sapiens); assay: Allosteric modulation of human recombinant GluA2 receptor flip isoform expressed in HEK293 cells assessed as potentiation of glutamate-induced calcium influx by Fluo-4/FLIPR method relative to cyclothiazide; assay type: cell-based
experimental endpoint: Activity (%)

{"molecule": "O=C(C(F)c1ccc(-n2nc(C(F)(F)F)c3c2CCCC3)cc1)N1CCCC1 (centres undefined)", "Activity, %": 98}
{"molecule": "CCC(=O)NCc1ccc(-n2nc(C(F)(F)F)c3c2CCCC3)cc1", "Activity, %": 98}
{"molecule": "O=C(c1ccc(-n2nc(C(F)(F)F)c3c2CCCC3)cc1)N1CCCCC1", "Activity, %": 100}
{"molecule": "O=C1CCCN1Cc1c(F)cc(-n2nc(C(F)(F)F)c3c2CCOC3)cc1F", "Activity, %": 120}

---

assay: Cmax in rat at 3 mg/kg, po; assay type: ADME, organism-based; design: dose 3 mg/kg, route oral; details: in vivo
experimental endpoint: Cmax (ng/mL)

The examples below pair each entry with its known result.
{"smiles structure": "CN(C)C(=O)Cc1ccc(-n2nc(C(F)(F)F)c3c2CCCC3)cc1", "experimental endpoint": "Cmax", "result value": 260}
{"smiles structure": "O=C1CCCN1Cc1ccc(-n2nc(C(F)(F)F)c3c2CCCC3)cc1", "experimental endpoint": "Cmax", "result value": 121}

(I) CS(=O)(=O)NCc1ccc(-n2nc(C(F)(F)F)c3c2CCCC3)cc1
(II) CN(C)C(=O)c1ccc(-n2nc(C(F)(F)F)c3c2CCCC3)cc1
IN: Lower Cmax: I or II ? Pick one; state its label.
OUT: II

---

experiment: Clearance in rat at 3 mg/kg, po; format: ADME, organism-based; design: dose 3 mg/kg, route oral; details: in vivo
experimental endpoint: CL/F (mL/min/kg)

{"smiles structure": "O=C1CCCN1Cc1ccc(-n2nc(C(F)(F)F)c3c2CCCC3)cc1", "CL/F / mL/min/kg": 54}
{"smiles structure": "O=C(Cc1ccc(-n2nc(C(F)(F)F)c3c2CCCC3)cc1F)N1CCCC1", "CL/F / mL/min/kg": 55}
{"smiles structure": "CS(=O)(=O)NCc1ccc(-n2nc(C(F)(F)F)c3c2CCCC3)cc1", "CL/F / mL/min/kg": 43}
{"smiles structure": "CN(C)C(=O)Cc1ccc(-n2nc(C(F)(F)F)c3c2CCCC3)cc1", "CL/F / mL/min/kg": 47}

---

biological target: UniProt:P42262; experiment: Allosteric modulation of human recombinant GluA2 receptor flip isoform expressed in HEK293 cells assessed as potentiation of glutamate-induced calcium influx by Fluo-4/FLIPR method
experimental endpoint: EC50 (µM)

The examples below pair each entry with its known result.
{"smiles structure": "O=C(c1ccc(-n2nc(C(F)(F)F)c3c2COCC3)cc1)N1CCCC1", "EC50 [µM]": 100}
{"smiles structure": "O=C(N1CCCC1)C(F)(F)c1ccc(-n2nc(C(F)(F)F)c3c2CCCC3)cc1", "EC50 [µM]": 20}
{"smiles structure": "CC(=O)c1ccc(-n2nc(C(F)(F)F)c3c2CCCC3)cc1", "EC50 [µM]": 31.6}
{"smiles structure": "O=C(Cc1ccc(-n2nc(C(F)(F)F)c3c2CCCC3)cc1)NC1CCCC1", "EC50 [µM]": 63.1}
{"smiles structure": "CS(=O)(=O)c1ccc(-n2nc(C(F)(F)F)c3c2CCCC3)cc1", "EC50 [µM]": 31.6}

(1) O=C1CCCN1Cc1ccc(-n2nc(C(F)(F)F)c3c2CCOC3)cc1
(2) O=C1CCCN1Cc1ccc(-n2nc(C(F)(F)F)c3c2COCC3)cc1
(3) O=C(Cc1ccc(-n2nc(C(F)(F)F)c3c2CCCC3)cc1)N1CCCC1
(4) O=C(N1CCCC1)C1(c2ccc(-n3nc(C(F)(F)F)c4c3CCCC4)cc2)CC1
(5) CCCCN(C)C(=O)c1ccc(-n2nc(C(F)(F)F)c3c2CCCC3)cc1
IN: rank_up(items): orders items by reported EC50 in ascending numerical order. The labels, placed in the requested order, form the answer.
OUT: 3, 2, 1, 5, 4
(3: 3.16 µM, 2: 5.01 µM, 1: 10 µM, 5: 15.8 µM, 4: 31.6 µM)

---

target: Glutamate receptor 2 (Homo sapiens, UniProt P42262); assay: Allosteric modulation of human recombinant GluA2 receptor flip isoform expressed in HEK293 cells assessed as potentiation of glutamate-induced calcium influx by Fluo-4/FLIPR method relative to cyclothiazide; assay type: cell-based
Sequence (P42262 whole entry, canonical isoform): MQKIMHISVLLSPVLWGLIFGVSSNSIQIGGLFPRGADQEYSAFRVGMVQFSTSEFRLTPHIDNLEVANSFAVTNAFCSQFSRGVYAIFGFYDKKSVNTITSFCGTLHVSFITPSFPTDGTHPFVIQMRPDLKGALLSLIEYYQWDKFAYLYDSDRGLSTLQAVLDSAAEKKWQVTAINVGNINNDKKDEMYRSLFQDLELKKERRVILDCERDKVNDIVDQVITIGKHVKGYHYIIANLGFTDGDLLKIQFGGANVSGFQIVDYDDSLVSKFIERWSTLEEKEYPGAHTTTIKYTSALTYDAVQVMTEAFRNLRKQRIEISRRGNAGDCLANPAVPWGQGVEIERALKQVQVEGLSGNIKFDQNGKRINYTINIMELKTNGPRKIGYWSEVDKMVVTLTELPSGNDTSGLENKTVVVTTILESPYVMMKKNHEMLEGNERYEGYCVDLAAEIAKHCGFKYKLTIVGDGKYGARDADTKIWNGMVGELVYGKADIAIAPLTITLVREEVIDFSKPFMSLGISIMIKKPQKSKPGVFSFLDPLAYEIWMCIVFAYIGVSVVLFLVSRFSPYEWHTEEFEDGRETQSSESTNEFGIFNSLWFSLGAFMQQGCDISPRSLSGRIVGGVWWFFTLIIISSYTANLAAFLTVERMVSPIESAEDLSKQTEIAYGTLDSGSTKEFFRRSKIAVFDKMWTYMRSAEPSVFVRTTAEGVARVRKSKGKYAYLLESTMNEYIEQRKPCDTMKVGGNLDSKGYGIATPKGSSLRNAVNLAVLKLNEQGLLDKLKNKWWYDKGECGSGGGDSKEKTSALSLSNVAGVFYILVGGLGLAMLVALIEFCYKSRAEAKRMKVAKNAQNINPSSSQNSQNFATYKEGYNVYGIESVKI
experimental endpoint: Activity (%)

{"smiles structure": "O=S1(=O)CCCN1Cc1ccc(-n2nc(C(F)(F)F)c3c2CCCC3)cc1", "target": "Glutamate receptor 2 (Homo sapiens, UniProt P42262)", "Activity (%)": 118}
{"smiles structure": "O=C(N1CCCC1)C(F)(F)c1ccc(-n2nc(C(F)(F)F)c3c2CCCC3)cc1", "target": "Glutamate receptor 2 (Homo sapiens, UniProt P42262)", "Activity (%)": 94}
{"smiles structure": "O=C(c1ccc(-n2nc(C(F)(F)F)c3c2CCOC3)cc1)N1CCCC1", "target": "Glutamate receptor 2 (Homo sapiens, UniProt P42262)", "Activity (%)": 81}
{"smiles structure": "O=C1CCCN1Cc1ccc(-n2nc(C(F)(F)F)c3c2COCC3)cc1", "target": "Glutamate receptor 2 (Homo sapiens, UniProt P42262)", "Activity (%)": 116}
{"smiles structure": "CS(=O)(=O)c1ccc(-n2nc(C(F)(F)F)c3c2CCCC3)cc1", "target": "Glutamate receptor 2 (Homo sapiens, UniProt P42262)", "Activity (%)": 83}
{"smiles structure": "CC(=O)Cc1ccc(-n2nc(C(F)(F)F)c3c2CCCC3)cc1", "target": "Glutamate receptor 2 (Homo sapiens, UniProt P42262)", "Activity (%)": 111}
{"smiles structure": "CN1CCc2c(C(F)(F)F)nn(-c3ccc(CN4CCCC4=O)cc3)c2C1", "target": "Glutamate receptor 2 (Homo sapiens, UniProt P42262)", "Activity (%)": 102}
{"smiles structure": "O=C1CCCN1Cc1ccc(-n2nc(C(F)(F)F)c3c2CCCC3)cc1F", "target": "Glutamate receptor 2 (Homo sapiens, UniProt P42262)", "Activity (%)": 112}
